# Tested on: Plasmopara viticola
# METHOD DESCRIPTION: Fungicidal effectiveness against Peronospora (Plasmopara viticola) in preventive leaf application on vines
# Format: in vivo
# TEST SETTINGS: 168 h, Dose 0.45 g/hl, preventive leaf application on Dolcetto vines, inoculation 24 hours after treatment, evaluation after 7 days, scale 100 (healthy plant) to 0 (completely infected plant), read-out: Effectiveness expressed as leaf diffusion control % of the disease with respect to a non-treated reference
Returns MET if the recorded pest or weed control at 0.45 g/hl is greater than or equal to 30%, and NOT MET otherwise.

Task item: For this molecule, is measured pest or weed control at 0.45 g/hl 30% or higher? COC(=O)C[C@H](NC(=O)[C@@H](NC(=O)OC(C)C)C(C)C)c1ccc(Cl)cc1
Reply: MET

Task item: Answer whether pest or weed control at 0.45 g/hl of COC(=O)CC(NC(=O)[C@@H](NC(=O)OC(C)(C)C)C(C)C)c1ccccc1 (stereo partly shown) [Reference 1, reference compound] is greater than or equal to 30%.
Reply: NOT MET

Task item: Is pest or weed control at 0.45 g/hl at least 30%? Consider COC(=O)CC(NC(=O)[C@@H](NC(=O)OC(C)C)C(C)C)c1ccc(OC)cc1 (stereo partly shown)
Reply: MET

Task item: Could you verify whether the entry COC(=O)CC(NC(=O)[C@@H](NC(=O)OC(C)C)C(C)C)c1ccc(C#N)cc1 (stereo partly shown) shows pest or weed control at 0.45 g/hl of no less than 30%?
Reply: MET

Task item: Does COC(=O)CC(NC(=O)[C@@H](NC(=O)OC(C)C)C(C)C)c1ccccc1 (stereo partly shown) [Reference 3, reference compound] have a reported pest or weed control at 0.45 g/hl of at least 30%?
Reply: NOT MET

Task item: Is it the case that COC(=O)C[C@@H](NC(=O)[C@@H](NC(=O)OC(C)C)C(C)C)c1ccc(Cl)cc1 (racemic) has pest or weed control at 0.45 g/hl reaching or exceeding 30%?
Reply: MET

* * *

# Test system: Plasmopara viticola
# METHOD DESCRIPTION: Fungicidal effectiveness against Peronospora (Plasmopara viticola) in preventive leaf application on vines
# Format: in vivo
# TEST SETTINGS: 168 h, Dose 30 g/hl, preventive leaf application on Dolcetto vines, inoculation 24 hours after treatment, evaluation after 7 days, scale 100 (healthy plant) to 0 (completely infected plant), read-out: Effectiveness expressed as leaf diffusion control % of the disease with respect to a non-treated reference
For each record, write down the corresponding pest or weed control at 30 g/hl.
Respond with the bare value in %.

Task item: Which pest or weed control at 30 g/hl reading was recorded for the compound COC(=O)CC(NC(=O)[C@@H](NC(=O)OC(C)C)C(C)C)c1ccc(OC)cc1 (stereo partly shown) ?
Reply: 100

Task item: Field request: pest or weed control at 30 g/hl | item: COC(=O)C[C@H](NC(=O)[C@@H](NC(=O)OC(C)C)C(C)C)c1ccc(Cl)cc1
Reply: 100

Task item: For the compound COC(=O)CC(NC(=O)[C@@H](NC(=O)OC(C)C)C(C)C)c1ccc(C)cc1 (stereo partly shown) , what pest or weed control at 30 g/hl is on record?
Reply: 100

Task item: Fill blank: measured pest or weed control at 30 g/hl of the compound COC(=O)CC(NC(=O)[C@@H](NC(=O)OC(C)(C)C)C(C)C)c1ccc(Cl)cc1 (stereo partly shown) [Reference 2, reference compound] is ____.
Reply: 100

Task item: I am curious: what pest or weed control at 30 g/hl value has been reported for COC(=O)C[C@@H](NC(=O)[C@@H](NC(=O)OC(C)C)C(C)C)c1ccc(Cl)cc1 (racemic) ?
Reply: 100

Task item: Query (compound): COC(=O)CC(NC(=O)[C@@H](NC(=O)OC(C)C)C(C)C)c1nc2ccccc2s1 (mixture of isomers) ; field requested: pest or weed control at 30 g/hl
Reply: 100

Task item: What does the record list as pest or weed control at 30 g/hl for COC(=O)CC(NC(=O)[C@@H](NC(=O)OC(C)C)C(C)C)c1ccc(Cl)cc1 (mixture of isomers) ?
Reply: 100

Task item: Would you mind telling me what pest or weed control at 30 g/hl value was observed for COC(=O)CC(NC(=O)[C@@H](NC(=O)OC(C)(C)C)C(C)C)c1ccccc1 (stereo partly shown) [Reference 1, reference compound] ?
Reply: 100

Task item: Recorded pest or weed control at 30 g/hl of COC(=O)CC(NC(=O)[C@@H](NC(=O)OC(C)C)C(C)C)c1ccccc1 (stereo partly shown) [Reference 3, reference compound] , please.
Reply: 100

Task item: Requested field: pest or weed control at 30 g/hl. Item: COC(=O)C(C)(C)C(NC(=O)[C@@H](NC(=O)OC(C)C)C(C)C)c1ccccc1 (stereo partly shown) [Reference 4, reference compound]
Reply: 90

Task item: Tell me the measured pest or weed control at 30 g/hl of COC(=O)CC(NC(=O)[C@@H](NC(=O)OC(C)C)C(C)C)c1ccc(C#N)cc1 (stereo partly shown) , please.
Reply: 100

Task item: Query: pest or weed control at 30 g/hl; subject: CC(C)OC(=O)CC(NC(=O)[C@@H](NC(=O)OC(C)C)C(C)C)c1ccccc1 (stereo partly shown) [Reference 5, reference compound]
Reply: 96

Task item: Look at this compound and give its reported pest or weed control at 30 g/hl. COC(=O)CC(NC(=O)[C@@H](NC(=O)OC(C)C)C(C)C)c1nc2cc(Cl)ccc2s1 (mixture of isomers)
Reply: 100

* * *

# System: Plasmopara viticola
# METHOD DESCRIPTION: Fungicidal effectiveness against Peronospora (Plasmopara viticola) in preventive leaf application on vines
# Type: in vivo
# TEST SETTINGS: 168 h, Dose 0.45 g/hl, preventive leaf application on Dolcetto vines, inoculation 24 hours after treatment, evaluation after 7 days, scale 100 (healthy plant) to 0 (completely infected plant), read-out: Effectiveness expressed as leaf diffusion control % of the disease with respect to a non-treated reference
Please use true (1) for pest or weed control at 0.45 g/hl under 20% and false (0) for everything else, ties included.

Task item: Quick check: pest or weed control at 0.45 g/hl of COC(=O)CC(NC(=O)[C@@H](NC(=O)OC(C)C)C(C)C)c1ccc(Cl)cc1 (mixture of isomers) under 20%?
Reply: false (0)

Task item: Check if pest or weed control at 0.45 g/hl falls below 20% for COC(=O)CC(NC(=O)[C@@H](NC(=O)OC(C)C)C(C)C)c1nc2cc(Cl)ccc2s1 (mixture of isomers) .
Reply: false (0)

Task item: Hello, is pest or weed control at 0.45 g/hl of the following compound strictly smaller than 20%? COC(=O)CC(NC(=O)[C@@H](NC(=O)OC(C)C)C(C)C)c1nc2ccccc2s1 (mixture of isomers)
Reply: false (0)

Task item: Report whether reported pest or weed control at 0.45 g/hl is lower than 20% (strictly) for COC(=O)C(C)(C)C(NC(=O)[C@@H](NC(=O)OC(C)C)C(C)C)c1ccccc1 (stereo partly drawn) [Reference 4, reference compound]
Reply: true (1)

Task item: Take the compound COC(=O)CC(NC(=O)[C@@H](NC(=O)OC(C)C)C(C)C)c1ccc(C)cc1 (stereo partly drawn) and say whether its pest or weed control at 0.45 g/hl is less than 20%.
Reply: false (0)

Task item: Is the reported pest or weed control at 0.45 g/hl for CC(C)OC(=O)CC(NC(=O)[C@@H](NC(=O)OC(C)C)C(C)C)c1ccccc1 (stereo partly drawn) [Reference 5, reference compound] strictly below 20%?
Reply: true (1)
